Assay System: Human immunodeficiency virus type 1 protease (Human immunodeficiency virus 1, UniProt Q72874)
Just a reminder that ties go to label 0: only IC50 strictly below 200 nM counts as label 1.

Find out if reported IC50 for `CC1(C)S[C@H]([C@H](NC(=O)Cc2ccccc2)C(=O)NCc2ccccc2)N[C@H]1C(=O)N[C@H](Cc1ccccc1)[C@H](O)CC(=O)N[C@@H](CO)Cc1ccccc1` is less than 200 nM label 1

Find out if reported IC50 for `CC1(C)S[C@H]([C@H](NC(=O)Cc2ccccc2)C(=O)NCc2ccccc2)N[C@H]1C(=O)N[C@H](Cc1ccccc1)[C@H](O)CC(=O)N[C@H](CO)c1ccccc1` is less than 200 nM label 1

Find out if reported IC50 for CC1(C)S[C@H]([C@H](NC(=O)Cc2ccccc2)C(=O)NCc2ccccc2)N[C@H]1C(=O)N[C@H](Cc1ccccc1)[C@H](O)CC(=O)NCC(O)CO (stereo partly drawn) is less than 200 nM label 1

Find out if reported IC50 for `CC1(C)S[C@H]([C@H](NC(=O)Cc2ccccc2)C(=O)NCc2ccccc2)N[C@H]1C(=O)N[C@H](Cc1ccccc1)[C@H](O)CC(=O)NCCc1ncc[nH]1` is less than 200 nM label 0

Find out if reported IC50 for `C[C@@H](Cc1ccccc1)NC(=O)[C@@H]1N[C@@H]([C@H](NC(=O)Cc2ccccc2)C(=O)NCc2ccccc2)SC1(C)C` is less than 200 nM label 0

Find out if reported IC50 for CCC(C)C(CO)NC(=O)[C@@H]1N[C@@H]([C@H](NC(=O)Cc2ccccc2)C(=O)NCc2ccccc2)SC1(C)C (stereo partly drawn) is less than 200 nM label 0

Find out if reported IC50 for `CC(C)[C@H](CO)NC(=O)[C@@H]1N[C@@H]([C@H](NC(=O)Cc2ccccc2)C(=O)NCc2ccccc2)SC1(C)C` is less than 200 nM label 0

Find out if reported IC50 for `CC1(C)S[C@H]([C@H](NC(=O)Cc2ccccc2)C(=O)NCc2ccccc2)N[C@H]1C(=O)N[C@H](CO)CCc1ccccc1` is less than 200 nM label 0

Find out if reported IC50 for `CC(C)C[C@H](CO)NC(=O)[C@@H]1N[C@@H]([C@H](NC(=O)Cc2ccccc2)C(=O)NCc2ccccc2)SC1(C)C` is less than 200 nM label 0

Find out if reported IC50 for `CC1(C)S[C@H]([C@H](NC(=O)Cc2ccccc2)C(=O)NCc2ccccc2)N[C@H]1C(=O)N[C@H](Cc1ccccc1)[C@@H](O)CC(N)=O` is less than 200 nM label 0

Find out if reported IC50 for `CC1(C)S[C@H]([C@H](NC(=O)Cc2ccccc2)C(=O)NCc2ccccc2)N[C@H]1C(=O)NCC(O)CNC(=O)[C@@H]1N[C@@H]([C@H](NC(=O)Cc2ccccc2)C(=O)NCc2ccccc2)SC1(C)C` is less than 200 nM label 1

Find out if reported IC50 for `CC1(C)S[C@H]([C@H](NC(=O)Cc2ccccc2)C(=O)NCc2ccccc2)N[C@H]1C(=O)N[C@H](Cc1ccccc1)[C@H](O)CC(=O)NCCO` is less than 200 nM label 0

Find out if reported IC50 for CC1(C)S[C@H]([C@H](NC(=O)Cc2ccccc2)C(=O)NCc2ccccc2)N[C@H]1C(=O)N[C@H](Cc1ccccc1)C(O)CNC(=O)Cc1ccccc1 (stereo partly drawn) is less than 200 nM label 1

Find out if reported IC50 for `CC1(C)S[C@H]([C@H](NC(=O)Cc2ccccc2)C(=O)NCc2ccccc2)N[C@H]1C(=O)N[C@H](Cc1ccccc1)[C@H](O)CC(=O)N[C@H](CO)Cc1ccccc1` is less than 200 nM label 0

Find out if reported IC50 for CCCCC(CO)NC(=O)[C@@H]1N[C@@H]([C@H](NC(=O)Cc2ccccc2)C(=O)NCc2ccccc2)SC1(C)C (stereo partly drawn) is less than 200 nM label 0

Find out if reported IC50 for `CC(C)CNC(=O)C[C@@H](O)[C@@H](Cc1ccccc1)NC(=O)[C@@H]1N[C@@H]([C@H](NC(=O)Cc2ccccc2)C(=O)NCc2ccccc2)SC1(C)C` is less than 200 nM label 1

Find out if reported IC50 for `CC1(C)S[C@H]([C@H](NC(=O)Cc2ccccc2)C(=O)NCc2ccccc2)N[C@H]1C(=O)N[C@H](Cc1ccccc1)[C@H](O)CC(=O)NCc1ccccc1` is less than 200 nM label 1

Find out if reported IC50 for `CC1(C)S[C@H]([C@H](NC(=O)Cc2ccccc2)C(=O)NCc2ccccc2)N[C@H]1C(=O)N[C@H](CO)Cc1ccccc1` is less than 200 nM label 0
